target: β3 adrenergic receptor, rat adipose tissue (Rattus norvegicus, UniProt P26255); construct: rat adipose tissue; from tissue; host or cells: rat adipose tissue; test: Adrenergic beta-receptor binding study, β3; settings: conclusions from receptor binding studies
Sequence (P26255 whole entry): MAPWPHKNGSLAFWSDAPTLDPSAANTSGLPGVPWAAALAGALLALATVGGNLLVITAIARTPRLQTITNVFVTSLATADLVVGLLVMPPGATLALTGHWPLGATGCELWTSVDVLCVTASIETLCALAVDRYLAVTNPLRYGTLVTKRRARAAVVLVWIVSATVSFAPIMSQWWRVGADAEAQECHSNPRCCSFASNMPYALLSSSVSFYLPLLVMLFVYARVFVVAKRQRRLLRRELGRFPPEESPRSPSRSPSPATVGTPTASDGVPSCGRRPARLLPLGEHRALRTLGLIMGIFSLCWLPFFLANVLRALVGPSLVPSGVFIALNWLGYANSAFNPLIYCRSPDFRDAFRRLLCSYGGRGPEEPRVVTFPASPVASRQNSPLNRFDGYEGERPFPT
Counter-ions that a name gives are not always drawn.

>  <compound>
C[C@@H](CCc1ccc(O)cc1)NC[C@H](O)c1ccc(O)cc1 [RS-ractopamine]

>  <Affinity for β3 receptors (in words)>
no or minimal affinity

$$$$
>  <compound>
C[C@H](CCc1ccc(O)cc1)NC[C@H](O)c1ccc(O)cc1 [RR-ractopamine, HCl]

>  <Affinity for β3 receptors (in words)>
no or minimal affinity

$$$$

---

Where a name gives a salt, the structure may show the parent alone.
What Ki was measured for each of the following?

Request: Specify Ki for C[C@H](CCc1ccc(O)cc1)NC[C@@H](O)c1ccc(O)cc1 , system β3 adrenergic receptor, rat adipose tissue (Rattus norvegicus).
Result: > 10 µM

Request: Provide Ki, recorded with β3 adrenergic receptor, rat adipose tissue (Rattus norvegicus), of C[C@@H](CCc1ccc(O)cc1)NC[C@@H](O)c1ccc(O)cc1
Result: > 100 µM

Request: State measured Ki of the compound C[C@H](CCc1ccc(O)cc1)NC[C@H](O)c1ccc(O)cc1 [RR-ractopamine, HCl] with β3 adrenergic receptor, rat adipose tissue (Rattus norvegicus).
Result: > 10 µM

Request: Lab note: record Ki of CC(C)(C)NC[C@H](O)c1ccc(O)c(CO)c1 tested on β3 adrenergic receptor, rat adipose tissue (Rattus norvegicus).
Result: > 100 µM

Request: Look up and report Ki, with β3 adrenergic receptor, rat adipose tissue (Rattus norvegicus) as system, for C[C@@H](CCc1ccc(O)cc1)NC[C@H](O)c1ccc(O)cc1
Result: > 10 µM

Request: Return reported Ki for target or system β3 adrenergic receptor, rat adipose tissue (Rattus norvegicus), item CC(CCc1ccc(O)cc1)NCC(O)c1ccc(O)cc1 (mixture of isomers) [Ractopamine, hydrochloride] .
Result: > 10 µM

---

biological target: β1 (h) adrenergic receptor, human recombinant (HEK-293 cells) (Homo sapiens, UniProt P08588); assay: biochemical
Sequence (P08588 whole entry): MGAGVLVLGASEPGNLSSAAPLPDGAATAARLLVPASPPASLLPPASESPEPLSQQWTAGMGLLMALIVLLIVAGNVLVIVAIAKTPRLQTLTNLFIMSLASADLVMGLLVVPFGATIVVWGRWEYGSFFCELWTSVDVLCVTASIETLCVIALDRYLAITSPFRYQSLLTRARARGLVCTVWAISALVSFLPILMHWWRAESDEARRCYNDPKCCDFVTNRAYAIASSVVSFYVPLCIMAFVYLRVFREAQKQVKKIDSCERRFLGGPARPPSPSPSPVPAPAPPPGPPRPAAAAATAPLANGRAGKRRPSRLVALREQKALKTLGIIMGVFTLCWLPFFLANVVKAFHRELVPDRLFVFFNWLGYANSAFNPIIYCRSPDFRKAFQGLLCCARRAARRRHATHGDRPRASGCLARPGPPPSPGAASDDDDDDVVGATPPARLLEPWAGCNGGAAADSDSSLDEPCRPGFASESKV
Counter-ions that a name gives are not always drawn.
Could you please report measured Ki for the items listed next?
State just the number; it will be interpreted in µM.

Request: Consider the compound C[C@@H](CCc1ccc(O)cc1)NC[C@H](O)c1ccc(O)cc1 . State its measured Ki.
Result: 0.84

Request: Quickly give me recorded Ki for C[C@H](CCc1ccc(O)cc1)NC[C@@H](O)c1ccc(O)cc1
Result: 1

Request: Report measured Ki; entry is C[C@H](CCc1ccc(O)cc1)NC[C@H](O)c1ccc(O)cc1 [RR-ractopamine, HCl]
Result: 0.11
